Test system: EKVX NSCLC
Assay details: NCI tumour cell line growth inhibition, 48 h
In this section we review reported TGI values for a set of compounds.
Express it in µM; write the number only.

Recorded TGI for `N#Cc1nc2c(S(=O)(=O)c3ccc(Cl)cc3)c(N)n(CCCN3CCOCC3)c2nc1C#N` , please?
22.7

Now, please, on to the next compound.
Recorded TGI for `C#CCNCCN1C(=O)c2ccc3c4c(ccc(c24)C1=O)C(=O)N(CCNCC#C)C3=O` , please?
13.6

###

In this section we review reported TGI values for a set of molecules.
System: TK-10 renal
Assay details: NCI tumour cell line growth inhibition, 48 h

Recorded TGI for CCOP(=O)(OCC)OC1c2[nH]cc(C(=O)OCc3ccccc3)c2-c2cc(C(=O)OC)[nH]c2C1OC (stereo not drawn) , please?
> 39.9 µM

Recorded TGI for `O=[N+]([O-])c1ccc(N=Nc2ccc(O)c3ccccc23)cc1` , please?
> 100 µM

Recorded TGI for `Cn1cccc1-c1cc(-c2ccc(Br)cc2)[nH]c(=O)c1C#N` , please?
> 100 µM

###

System: HCT-15 colon
Assay details: NCI tumour cell line growth inhibition, 48 h
Measured parameter: TGI

Recorded TGI for `CCOC(=O)c1nnc2c(C#N)c(-c3ccccc3)c(C)n2c1N` , please?
> 100 µM

Recorded TGI for `Cc1ccc(-c2csc(NC(=O)N3CCN(c4cc5c(cc4F)c(=O)c(C(=O)O)cn5C4CC4)CC3)n2)cc1` , please?
> 100 µM

Recorded TGI for CC(=O)OC(C)(C)CCC(=O)[C@](C)(O)[C@H]1[C@H](O)C[C@@]2(C)[C@@H]3CCc4c(cc(OC5OC(CO)C(O)C(O)C5O)c(O)c4C)C3(C)C(=O)C[C@]12C (stereo not given in full) , please?
> 100 µM

Recorded TGI for `Cc1cn2c(/C=C3/C(=O)Nc4ccc(O)cc43)c(C)nc2s1` , please?
> 58.5 µM

More entries:
Recorded TGI for `Cc1[nH]c2ccc(F)cc2c1-c1nc2c3cccnc3c3ncccc3c2[nH]1` , please?
> 100 µM

###

In this section we review reported TGI values for a set of molecules.
Test system: TK-10 renal
Assay details: NCI tumour cell line growth inhibition, 48 h

Examples with answers:
What measured TGI is associated with `O=C(c1ccc(Cl)cc1)N(C(=S)OCCOc1ccccc1)c1ccccc1` on TK-10 renal?
> 100 µM

What measured TGI is associated with `O=C(NNC(=O)c1csc(NC(=S)NC2CCCCC2)n1)c1ccccc1` on TK-10 renal?
85.6 µM

What measured TGI is associated with `O=C(Nc1ccc(Cl)cc1)c1cc(S(=O)(=O)Nc2nnc3c(Cl)cc(C(F)(F)F)cn23)c(S)cc1Cl` on TK-10 renal?
> 100 µM

More entries:
What measured TGI is associated with `CCOC(=O)c1nc2ccc(C(F)(F)F)cc2nc1Oc1ccc(C(=O)OC)cc1` on TK-10 renal?
> 100 µM

What measured TGI is associated with COc1cccc(C2c3cc4c(cc3OC(Nc3ccccc3)C2C)OCO4)c1OC (stereo not drawn) on TK-10 renal?
> 100 µM

What measured TGI is associated with CCOC(=O)C(Cl)(NC(=O)OCc1ccccc1)C(F)(F)F (stereo not drawn) on TK-10 renal?
> 100 µM

What measured TGI is associated with `COC(=O)Nc1nc2ccc(Oc3cccc(NC(=O)Nc4cc(C(F)(F)F)ccc4F)c3)cc2[nH]1` on TK-10 renal?
> 25 µM

What measured TGI is associated with CC(Oc1ccc(OCC2CCCCC2)cc1)C(=O)NCc1ccco1 (stereo not drawn) on TK-10 renal?
> 100 µM

###

Test system: HCT-15 colon
Assay details: NCI tumour cell line growth inhibition, 48 h
Measured parameter: TGI

Recorded TGI for `c1ccc(CSC2(SCc3ccccc3)CCCCC2)cc1` , please?
> 10 µM

Recorded TGI for `Cc1cnc2sn(-c3ccc(Br)cc3)c(=O)c2c1` , please?
> 100 µM

Now, please, on to the next compound.
Recorded TGI for `COC(=O)Nc1nc2ccc(Oc3cccc(NC(=O)Nc4cc(C(F)(F)F)ccc4F)c3)cc2[nH]1` , please?
> 25 µM

###

Test system: SR leukemia
Assay details: NCI tumour cell line growth inhibition, 48 h
In this section we review reported TGI values for a set of compounds.

Recorded TGI for `Nc1nc(-c2ccco2)cc(-c2ccc(CO)o2)n1` , please?
> 100 µM

Recorded TGI for C[C@@H]1CC[C@@]2(OC1)O[C@H]1C[C@H]3[C@@H]4CC[C@H]5C[C@@H](OC6OC(CO)C(OC7OC(CO)C(O)C(OC8OCC(O)C(O)C8O)C7OC7OC(CO)C(O)C(O)C7O)C(O)C6O)[C@H](O)C[C@]5(C)[C@H]4CC[C@]3(C)[C@H]1[C@@H]2C (stereo not given in full) , please?
> 33.8 µM

Recorded TGI for `O=c1oc2cc(O)ccc2c(O)c1Cc1c(O)c2ccc(O)cc2oc1=O` , please?
> 100 µM

Recorded TGI for `CCOC(=O)c1cc2c(n1Cc1cc(OC)c(OC)c(OC)c1)-c1oncc1CCC2` , please?
5.5 µM

Now, please, on to the next compound.
Recorded TGI for `NCCN.O=C([O-])CN1CCOCC1.[OH-].[Pt+4]` , please?
> 100 µM

###

System: EKVX NSCLC
Assay details: NCI tumour cell line growth inhibition, 48 h
In this section we review reported TGI values for a set of compounds.

Recorded TGI for `[O-]c1ccccc1/C=N/C(/N=C/c1ccccc1[O-])c1ccccc1O.[O-]c1ccccc1/C=N/C(/N=C/c1ccccc1[O-])c1ccccc1O.[Zr+4]` , please?
> 100 µM

Recorded TGI for `CC(=O)[O][Sn]([CH2]c1ccccc1)([CH2]c1ccccc1)[CH2]c1ccccc1` , please?
> 6.88 µM

Now, please, on to the next compound.
Recorded TGI for `O=C(Nc1ccc(Cl)cc1)c1cc(S(=O)(=O)Nc2nnc3c(Cl)cc(C(F)(F)F)cn23)c(S)cc1Cl` , please?
> 100 µM

###

System: TK-10 renal
Assay details: NCI tumour cell line growth inhibition, 48 h
In this section we review reported TGI values for a set of compounds.

Recorded TGI for `CCc1ccccc1NC(=O)/C(N=O)=C(/C)O` , please?
> 100 µM

Recorded TGI for `Nc1ncnc2c1c(-c1ccc(Oc3ccccc3)cc1)nn2C[C@@H]1SSC[C@H]1O` , please?
3.16 µM

Recorded TGI for `BrCC[N+]12CC[N+](CCBr)(CC1)C2` , please?
> 100 µM

Recorded TGI for `CCSc1nc(SCC)c2c(-c3ccc(OC)c(OC)c3)c(C#N)c(SCC)nc2n1` , please?
53.3 µM

Recorded TGI for `Cc1nn(C)c(COc2ccc(N3CCN(S(=O)(=O)N(C)C)CC3)cc2)c1-c1cccc2c(CCCOc3cccc4ccccc34)c(C(=O)O)n(CCN3CCOCC3)c12` , please?
15.5 µM

Recorded TGI for `COc1ccc(NC(=S)c2ccoc2C)cc1CC(=O)OC(C)C` , please?
> 100 µM

###

In this section we review reported TGI values for a set of compounds.
System: TK-10 renal
Assay details: NCI tumour cell line growth inhibition, 48 h

Examples with answers:
Recorded TGI for `COc1ccc(N(/C=C/C(=O)C(F)(F)F)CC(=O)c2ccc(F)cc2)cc1` , please?
96.4 µM

Recorded TGI for `O=C1NOC(c2ccc(O)cc2)(c2ccc(O)cc2)c2ccccc21` , please?
> 100 µM

Recorded TGI for `CN(C)C(=O)c1ccc([N+](=O)[O-])cc1` , please?
> 100 µM

Now, please, on to the next compound.
Recorded TGI for COC(=O)C(CC1=C(O)Nc2ccccc2N1)/C(=N/NC(N)=O)C(=O)Nc1ccccc1C (centres undefined) , please?
> 100 µM
